Measured values drawn from patent US6407091B1 for this set.

Target system: Class C β-lactamase of Enterobacter cloacae P-99 (Enterobacter cloacae)
Sequence (P05364 21-381): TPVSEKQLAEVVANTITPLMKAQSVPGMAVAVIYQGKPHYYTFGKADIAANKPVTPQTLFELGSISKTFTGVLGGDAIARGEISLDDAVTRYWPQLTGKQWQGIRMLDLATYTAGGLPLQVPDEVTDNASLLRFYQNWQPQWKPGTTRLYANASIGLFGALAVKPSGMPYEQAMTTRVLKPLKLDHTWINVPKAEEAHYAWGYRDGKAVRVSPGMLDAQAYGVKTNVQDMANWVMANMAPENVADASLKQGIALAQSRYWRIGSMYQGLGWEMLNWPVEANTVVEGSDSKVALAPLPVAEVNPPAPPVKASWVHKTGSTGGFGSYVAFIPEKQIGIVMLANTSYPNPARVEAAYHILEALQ
Test description: IC50 for inhibition of Class C β-lactamase of Enterobacter cloacae P-99 (nitrocefin hydrolysis)
Format: biochemical
Conditions used: Table 1; 10 minute incubation of enzyme (2.56 nM) and inhibitor, nitrocefin hydrolysis; relative to tazobactam standard; read-out: IC50 Values for Inhibition of β-lactamase Derived from P-99
Catalogue of molecules with associated pIC50
Please treat pIC50 as minus the base-10 logarithm of the molar concentration.

input: What pIC50 appears in the records for this molecule with Class C β-lactamase of Enterobacter cloacae P-99 (Enterobacter cloacae)? C=C1C(COC(C)=O)=C(C(=O)O)N2C(=O)/C(=C/C(=O)O)C2S1(=O)=O (centres unmarked)
output: 5.60

input: Next molecule up: C=C1C(C)=C(C(=O)O)N2C(=O)/C(=C/C(=O)O)C2S1(=O)=O (centres unmarked)
output: 4.43
